tested on: giant foxtail (Setaria faberi); experiment: Test G Pre-Emergence Protocol; format: in vivo; conditions: Setaria faberi, pre-emergence, 312 h, 62.5 g ai/ha, evaluated after 13 days, 100=total damage to plant, 0=no damage to plant, read-out: Foxtail, Giant damage rating
measure: pest or weed control at 62.5 g/ha (%)

compound="Cc1ccc(C2CN(C)C(=O)C2C(=O)Nc2cccc(F)c2F)cc1[N+](=O)[O-] (stereo not shown)" measure="pest or weed control at 62.5 g/ha" experimental_result=70
compound="CN1C[C@H](c2ccc(C(F)(F)F)cc2)[C@@H](C(=O)Nc2ccc[n+]([O-])c2C(F)(F)F)C1=O (racemic)" measure="pest or weed control at 62.5 g/ha" experimental_result=10
compound=CON1C[C@H](c2ccc(F)c(F)c2)[C@@H](C(=O)Nc2ccc(F)c(F)c2F)C1=O measure="pest or weed control at 62.5 g/ha" experimental_result=90
compound="CN1CCCC(NC(=O)[C@H]2C(=O)N(C)C[C@@H]2c2ccc(C(F)(F)F)cc2)C1=O (mixture of isomers)" measure="pest or weed control at 62.5 g/ha" experimental_result=0

---

tested on: giant foxtail (Setaria faberii); assay: Test A postemergence; type: in vivo; details: Setaria faberi, post-emergence, 240 h, 125 g ai/ha, Postemergence; visual injury after approximately 10 d; 0 to 100 scale where 0 is no effect and 100 is complete control; read-out: Plant response rating, Foxtail, Giant
measure: pest or weed control at 125 g/ha (%)

smiles_record=CC(C)Oc1ccc([C@H]2CN(C)C(=O)[C@@H]2C(=O)Nc2cccc(F)c2F)cc1 system_name="giant foxtail (Setaria faberii)" experimental_result=90
smiles_record=CN1C[C@H](c2cc(F)cc(F)c2)[C@@H](C(=O)Nc2cc(O)ccc2F)C1=O system_name="giant foxtail (Setaria faberii)" experimental_result=0
smiles_record=CC(C)COc1cccc([C@H]2CNC(=O)[C@@H]2C(=O)Nc2cccc(F)c2F)c1 system_name="giant foxtail (Setaria faberii)" experimental_result=70
smiles_record=CN1CC[C@H](c2ccccc2C(F)(F)F)[C@@H](C(=O)Nc2cccc(F)c2F)C1=O system_name="giant foxtail (Setaria faberii)" experimental_result=0
smiles_record=CN1C[C@H](c2cc(F)cc(C(F)(F)F)c2)[C@@H](C(=O)Nc2cccc(Cl)c2F)C1=O system_name="giant foxtail (Setaria faberii)" experimental_result=80

---

test system: johnsongrass (Sorghum halepense); assay: Test C preemergence; type: in vivo; conditions: 250 g ai/ha, scale 0 to 100, 0 no effect, 100 complete control
Label MET when Plant response rating, Johnsongrass is at or above 70; otherwise label NOT MET.

compound="CN1CC(c2cccc(OC(F)F)c2)C(C(=O)Nc2ccc(F)cc2F)C1=O (centres unmarked) [Compound 617]" system_name="johnsongrass (Sorghum halepense)" label=MET
compound="Cc1ccc(C2CN(C)C(=O)C2C(=O)Nc2ccccc2C(F)(F)F)cc1 (centres unmarked) [Compound 665]" system_name="johnsongrass (Sorghum halepense)" label="NOT MET"
compound="CN1CC(c2ccc(F)c(F)c2)C(C(=O)Nc2ccccc2S(C)(=O)=O)C1=O (centres unmarked) [Compound 640]" system_name="johnsongrass (Sorghum halepense)" label="NOT MET"
compound="O=C1NCC(c2ccc(Br)cc2)C1C(=O)Nc1cccc(F)c1F (centres unmarked) [Compound 446]" system_name="johnsongrass (Sorghum halepense)" label="NOT MET"

---

Reported pest or weed control at 31 g/ha values follow for various molecules
test system: ryegrass, Italian (Italian ryegrass, Lolium multiflorum); assay: Test A postemergence; type: in vivo; details: Lolium multiflorum, post-emergence, 240 h, Postemergence, 31 g ai/ha; 0 is no effect, 100 is complete control; read-out: Ryegrass, Italian plant response rating (0 to 100 scale)
measure: pest or weed control at 31 g/ha (%)

smiles_record=CN1C[C@H](c2ccc(Cl)c(F)c2)[C@@H](C(=O)Nc2ccc(F)c(F)c2F)C1=O unit=% experimental_result=20
smiles_record=CN1C[C@H](c2ccc(C(F)F)cc2)[C@@H](C(=O)Nc2cccnc2F)C1=O unit=% experimental_result=0
smiles_record=O=C1NC[C@H](c2ccc(F)c(Oc3ccccc3)c2)[C@H]1C(=O)Nc1cccc(F)c1F unit=% experimental_result=0
smiles_record=O=C1NC[C@H](c2cc(Br)cc(Br)c2)[C@H]1C(=O)Nc1cccc(F)c1F unit=% experimental_result=0
smiles_record=O=C1NC[C@H](c2cccc(C(F)(F)F)c2)[C@H]1C(=O)Nc1ccccc1-n1cncn1 unit=% experimental_result=0

---

tested on: Kochia (Kochia scoparia); test: Test A postemergence; type: in vivo; conditions: Postemergence, 500 g ai/ha; 0 to 100 scale where 0 is no effect and 100 is complete control
Label criterion met when Plant response rating, Kochia is at or above 20; otherwise label criterion not met.

compound="CN1CC(c2cccc(OC(F)F)c2)C(C)(C(=O)Nc2cccc(F)c2F)C1=O (centres unmarked)" system_name="Kochia (Kochia scoparia)" label="criterion not met"
compound="Cc1ccc(C2CN(C)C(=O)C2C(=O)Nc2ccccc2F)c(F)c1 (centres unmarked)" system_name="Kochia (Kochia scoparia)" label="criterion met"
compound="COCc1cccc(C2CNC(=O)C2C(=O)Nc2cccc(F)c2F)c1 (centres unmarked)" system_name="Kochia (Kochia scoparia)" label="criterion met"
compound="O=C1NCC(c2ccsc2Cl)C1C(=O)Nc1cccc(F)c1F (centres unmarked)" system_name="Kochia (Kochia scoparia)" label="criterion not met"
compound="C=CCN1CC(c2cccc(C(F)(F)F)c2)C(C(=O)Nc2ccccc2F)C1=O (centres unmarked)" system_name="Kochia (Kochia scoparia)" label="criterion not met"
compound="O=C1NCC(c2ccc(F)cc2F)C1C(=O)Nc1ccc(F)cc1F (racemic)" system_name="Kochia (Kochia scoparia)" label="criterion not met"
compound="CN1CC(c2ccc(C(F)(F)F)cc2F)C(C(=O)Nc2ccc(F)cc2F)C1=O (centres unmarked)" system_name="Kochia (Kochia scoparia)" label="criterion met"
compound="CN1CC(c2cccc(Br)c2)C(C(=O)Nc2cccc(F)c2F)C1=O (centres unmarked)" system_name="Kochia (Kochia scoparia)" label="criterion met"
compound="O=C1NCC(c2cc(F)ccc2F)C1C(=O)Nc1ccccc1F (racemic)" system_name="Kochia (Kochia scoparia)" label="criterion not met"
compound="O=C1NCC(c2cc(Br)cs2)C1C(=O)Nc1cccc(F)c1F (racemic)" system_name="Kochia (Kochia scoparia)" label="criterion met"
compound="CN1CC(c2cccc(C(F)(F)F)c2)C(C(=O)Nc2cccc(C#N)c2F)C1=O (centres unmarked)" system_name="Kochia (Kochia scoparia)" label="criterion met"
compound="CN1CC(c2cccc(OC(F)F)c2)C(C(=O)Nc2ccc(F)cc2F)C1=O (centres unmarked)" system_name="Kochia (Kochia scoparia)" label="criterion met"

---

system: pigweed (Amaranthus retroflexus); assay: Test A postemergence; type: in vivo; settings: Amaranthus retroflexus, post-emergence, 240 h, 125 g ai/ha, postemergence, visual injury vs untreated controls after approx. 10 d; 0 = no effect, 100 = complete control; read-out: Pigweed plant response rating (0 to 100 scale)
measure: pest or weed control at 125 g/ha (%)

smiles_record=O=C1NC[C@H](c2ccc(F)c(Oc3ccccc3)c2)[C@H]1C(=O)Nc1cccc(F)c1F measure="pest or weed control at 125 g/ha" unit=% experimental_result=30
smiles_record=Cc1ccc([C@H]2CCN(C)C(=O)[C@@H]2C(=O)Nc2cccc(Cl)c2F)cc1 measure="pest or weed control at 125 g/ha" unit=% experimental_result=0
smiles_record=Cc1cccc([C@H]2CN(C)C(=O)[C@@H]2C(=O)Nc2cccc(F)c2C)c1 measure="pest or weed control at 125 g/ha" unit=% experimental_result=0
smiles_record=Cc1nc([C@H]2CNC(=O)[C@@H]2C(=O)Nc2cccc(F)c2F)cs1 measure="pest or weed control at 125 g/ha" unit=% experimental_result=0

---

Reported pest or weed control at 250 g/ha values follow for various compounds
test system: ivy-leaved morning glory (Ipomoea hederacea); test: Test G Pre-Emergence Protocol; type: in vivo; conditions: Ipomoea, pre-emergence, 312 h, 250 g ai/ha, evaluated after 13 days, read-out: Morningglory, Ivy-leaved damage rating (100=total damage to plant; 0=no damage to plant)
measure: pest or weed control at 250 g/ha (%)

compound="CC1OC(=O)c2c(NC(=O)[C@H]3C(=O)N(C)C[C@@H]3c3ccc(C(F)(F)F)cc3)cccc21 (mixture of isomers)" experimental_result=0
compound="Cc1cc([C@H]2CN(C)C(=O)[C@@H]2C(=O)Nc2cccc(F)n2)cc(C(F)(F)F)c1 (racemic)" experimental_result=40
compound=CN1C[C@H](c2ccc(Cl)cc2)[C@@H](C(=O)Nc2cccc(F)n2)C1=O experimental_result=60
compound="CN1C[C@@H](c2ccc(C(F)(F)F)cc2)[C@H](C(=O)Nc2nnc(C(F)(F)F)o2)C1=O (racemic)" experimental_result=0
compound="CN1CCCC(NC(=O)[C@H]2C(=O)N(C)C[C@@H]2c2ccc(C(F)(F)F)cc2)C1=O (mixture of isomers)" experimental_result=0
compound="CC(O)c1ccccc1NC(=O)[C@H]1C(=O)N(C)C[C@@H]1c1cccc(C(F)(F)F)c1 (mixture of isomers)" experimental_result=40
compound="Cc1csc(NC(=O)[C@@H]2C(=O)N(C)C[C@H]2c2ccc(C(F)(F)F)cc2)c1C#N (racemic)" experimental_result=0
compound="CCCOc1cc(C2CN(C)C(=O)C2C(=O)Nc2cccc(F)c2F)cc(C(F)(F)F)c1 (centres unmarked)" experimental_result=0
compound="C=CCc1c(Cl)cccc1NC(=O)[C@H]1C(=O)N(C)C[C@@H]1c1ccc(C(F)(F)F)cc1 (racemic)" experimental_result=0
compound="CN1C[C@@H](c2ccc(C(F)(F)F)cc2)[C@H](C(=O)Nc2ccc(F)nc2)C1=O (racemic)" experimental_result=0
compound="CN1C[C@H](c2cccc3c2OC(F)(F)O3)[C@@H](C(=O)Nc2ccccc2F)C1=O (racemic)" experimental_result=0
compound="CN1C[C@@H](c2ccc(C(F)(F)F)cc2)[C@H](C(=O)Nc2ncc(Cl)s2)C1=O (racemic)" experimental_result=0
compound="CN1C[C@@H](c2ccc(C(F)(F)F)cc2)[C@H](C(=O)Nc2cc(C(F)(F)F)no2)C1=O (racemic)" experimental_result=0
compound="CN1C[C@@H](c2ccc(C(F)(F)F)cc2)[C@H](C(=O)Nc2cccnc2Cl)C1=O (racemic)" experimental_result=0
compound="Cc1cccc(NC(=O)[C@H]2C(=O)N(C)C[C@@H]2c2ccc(C(F)(F)F)cc2)c1C#N (racemic)" experimental_result=0
compound="CN1C[C@H](c2cccc(C(F)(F)F)c2)[C@@H](C(=O)Nc2ccc3cccnc3n2)C1=O (racemic)" experimental_result=0
compound="CN1C[C@@H](c2ccc(C(F)(F)F)cc2)[C@H](C(=O)Nc2nccc(=O)[nH]2)C1=O (racemic)" experimental_result=0
